- TEST_SYSTEM: human D2-long dopamine receptor (Homo sapiens (Human))
- Sequence (P14416 whole entry): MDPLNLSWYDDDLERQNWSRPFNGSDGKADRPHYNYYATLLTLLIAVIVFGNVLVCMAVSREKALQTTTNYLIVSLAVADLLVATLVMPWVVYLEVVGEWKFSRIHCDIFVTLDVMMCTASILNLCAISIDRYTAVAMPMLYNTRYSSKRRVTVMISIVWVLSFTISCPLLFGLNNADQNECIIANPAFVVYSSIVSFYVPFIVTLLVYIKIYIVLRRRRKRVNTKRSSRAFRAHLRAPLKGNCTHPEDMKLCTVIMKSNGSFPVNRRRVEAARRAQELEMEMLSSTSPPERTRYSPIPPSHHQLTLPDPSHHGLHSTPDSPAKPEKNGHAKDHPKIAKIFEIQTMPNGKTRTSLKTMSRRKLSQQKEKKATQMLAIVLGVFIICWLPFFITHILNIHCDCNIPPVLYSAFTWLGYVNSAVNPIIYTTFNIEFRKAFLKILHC
- TEST_DESCRIPTION: Radioligand binding (125I-IABN competition), D2
- STUDY_CONDITIONS: HEK cell membranes expressing human D2-long
pKi: −log10 of the molar value.
# pKi annotations

[
  {
    "SMILES_REPRESENTATION": "CC(C)(C)c1nc(N2CCN(CCCCNC(=O)N3CCN(C4CCCCC4)CC3)CC2)cc(C(F)(F)F)n1",
    "pKi": 6.67
  },
  {
    "SMILES_REPRESENTATION": "CC(C)(C)c1nc(N2CCN(CCCCNC(=O)N3Cc4ccccc4C3)CC2)cc(C(F)(F)F)n1",
    "pKi": 6.11
  },
  {
    "SMILES_REPRESENTATION": "CC(C)(C)c1nc(N2CCN(CCCCNC(=O)N3CCN(c4cccc(C#N)c4)CC3)CC2)cc(C(F)(F)F)n1",
    "pKi": 6.15
  },
  {
    "SMILES_REPRESENTATION": "CC(C)(C)c1nc(N2CCN(CCCCNC(=O)N3CCC(Oc4ccccc4)CC3)CC2)cc(C(F)(F)F)n1",
    "pKi": 5.89
  },
  {
    "SMILES_REPRESENTATION": "O=C(NCCCCN1CCN(c2ccnc3cc(Cl)ccc23)CC1)N1CCN(c2ccccc2)CC1",
    "pKi": 6.03
  },
  {
    "SMILES_REPRESENTATION": "CC(C)(C)c1nc(N2CCN(CCCCNC(=O)N3CCC(n4c(=O)[nH]c5ccccc54)CC3)CC2)cc(C(F)(F)F)n1",
    "pKi": 6.15
  },
  {
    "SMILES_REPRESENTATION": "Cc1nc(N2CCN(CCCCNC(=O)N3CCn4c(C)nnc4C3)CC2)cc(C(C)(C)C)n1",
    "pKi": 4.98
  }
]
